Consider compounds characterized by their IC50 with Peptidyl-prolyl cis-trans isomerase FKBP1A (Homo sapiens).
Sequence (P62942 whole entry): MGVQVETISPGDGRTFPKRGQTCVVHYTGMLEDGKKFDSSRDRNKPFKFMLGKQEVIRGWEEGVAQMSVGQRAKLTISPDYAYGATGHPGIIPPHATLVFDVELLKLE
Readout Label: IC50 (µM)

Some solved cases for reference:
Compound	Units Symbol	Assay Result
CC[C@@H]1/C=C(\C)C[C@H](C)C[C@H](OC)[C@H]2O[C@@](O)(C(=O)C(=O)N3CCCC[C@H]3C(=O)O[C@H](/C(C)=C/C3CC[C@@H](OCC(=O)Nc4cccc(C(F)(F)F)c4)[C@H](OC)C3)[C@H](C)[C@@H](O)CC1=O)[C@H](C)C[C@@H]2OC (stereo partly drawn)	µM	0.47
CC[C@@H]1/C=C(\C)C[C@H](C)C[C@H](OC)[C@H]2O[C@@](O)(C(=O)C(=O)N3CCCC[C@H]3C(=O)O[C@H](/C(C)=C/C3CC[C@@H](OCC(=O)N(C)CCc4ccccc4)[C@H](OC)C3)[C@H](C)[C@@H](O)CC1=O)[C@H](C)C[C@@H]2OC (stereo partly drawn)	µM	0.0004
CC[C@@H]1/C=C(\C)C[C@H](C)C[C@H](OC)[C@H]2O[C@@](O)(C(=O)C(=O)N3CCCC[C@H]3C(=O)O[C@H](/C(C)=C/C3CC[C@@H](OCC(=O)Nc4ccc(Cl)cc4)[C@H](OC)C3)[C@H](C)[C@@H](O)CC1=O)[C@H](C)C[C@@H]2OC (stereo partly drawn)	µM	0.18
CC[C@@H]1/C=C(\C)C[C@H](C)C[C@H](OC)[C@H]2O[C@@](O)(C(=O)C(=O)N3CCCC[C@H]3C(=O)O[C@H](/C(C)=C/C3CC[C@@H](OCC(=O)Nc4ccc(C)cc4)[C@H](OC)C3)[C@H](C)[C@@H](O)CC1=O)[C@H](C)C[C@@H]2OC (stereo partly drawn)	µM	0.071
CC[C@@H]1/C=C(\C)C[C@H](C)C[C@H](OC)[C@H]2O[C@@](O)(C(=O)C(=O)N3CCCC[C@H]3C(=O)O[C@H](/C(C)=C/C3CC[C@@H](OCC(=O)Nc4cccc(F)c4)[C@H](OC)C3)[C@H](C)[C@@H](O)CC1=O)[C@H](C)C[C@@H]2OC (stereo partly drawn)	µM	0.18
CC[C@@H]1/C=C(\C)C[C@H](C)C[C@H](OC)[C@H]2O[C@@](O)(C(=O)C(=O)N3CCCC[C@H]3C(=O)O[C@H](/C(C)=C/C3CC[C@@H](OCC(=O)Nc4ccc(OC)cc4)[C@H](OC)C3)[C@H](C)[C@@H](O)CC1=O)[C@H](C)C[C@@H]2OC (stereo partly drawn)	µM	0.05

1 = CC[C@@H]1/C=C(\C)C[C@H](C)C[C@H](OC)[C@H]2O[C@@](O)(C(=O)C(=O)N3CCCC[C@H]3C(=O)O[C@H](/C(C)=C/C3CC[C@@H](OCC(=O)Nc4ccccn4)[C@H](OC)C3)[C@H](C)[C@@H](O)CC1=O)[C@H](C)C[C@@H]2OC (stereo partly drawn)
2 = CC[C@@H]1/C=C(\C)C[C@H](C)C[C@H](OC)[C@H]2O[C@@](O)(C(=O)C(=O)N3CCCC[C@H]3C(=O)O[C@H](/C(C)=C/C3CC[C@@H](OCC(=O)NCCc4ccccc4)[C@H](OC)C3)[C@H](C)[C@@H](O)CC1=O)[C@H](C)C[C@@H]2OC (stereo partly drawn)
Just tell me: smaller IC50 value, 1 or 2 ? Return value: the label identifying the chosen record.
1
